Quick reference: melting point of the listed items.

C#CCn1ccc(CO)c1C(F)(F)F | 63 °C
Cn1c2ccccc2c2nc3c(C=O)cccc3nc21 | 219 to 220 °C
CCOC(=O)c1cccc(-c2c(C)c(NC(=O)CC(C)(C)C)c(C)c3c2OCC3c2ccc(C(C)C)cc2)c1 (stereo unspecified) | 175 to 177 °C
COc1ccc(Nc2ccccc2C(=O)CS(C)=O)cc1 (stereo unspecified) | 115 to 116 °C
CCCCCC(Oc1ccc(C2=CCCCCC2)cc1)C(=O)O (stereo unspecified) | 69 to 71 °C

Query compound follows.
Query: Tell me the measured melting point of NC(=O)Cc1nc(C(=O)c2ccc(F)cc2)no1 , please.
Reply: 197 to 199 °C

###

Below, each entry is listed alongside its reported melting point.

Worked cases, answers included:
O=C(NCCO)c1ccc(-c2nn(Cc3ccccc3)c3ccccc23)o1 | 119 to 127 °C
COC(=S)c1cc(C)cc(C)c1 | 46 °C
CCc1c(C)c(NC(=O)CC(C)(C)C)c(C)c2c1SCC2c1ccc(C(C)C)cc1 (stereo unspecified) | 172 to 173 °C
Cc1nc2ccc3c(c2o1)C(O)(CC#N)C(C(C)C)C3 (stereo unspecified) | 149 to 152 °C
CCOC(=O)c1[nH]c(C)cc1N | 85 to 87 °C
O=C(c1ccc(Cl)cc1)c1ccc2[nH]c(=O)cc(-c3cccc(Cl)c3)c2c1 | 235 °C
COc1ccc(-c2nnn(-c3ccc(Cl)cc3Cl)c2N)cc1 | 149 to 151 °C
O=P(O)(O)C(O)C(O)P(=O)(O)O (stereo unspecified) | 209 to 211 °C

Now look at this one.
Query: Any idea what melting point was measured for CNCCCNCCCSP(=O)(O)O ?
Reply: 115 to 120 °C

###

Measured melting point of individual entries

Query: Fill in the blank: the reported melting point of COc1ccc2c(c1)Sc1cc(N)ccc1N2C is ____.
Reply: 142 to 143 °C

Query: What does the data say about its melting point? Entry: CC(C)(C)NC(=O)N1CCn2c(c(C(N)=O)c(Br)c2C2CC2)C1
Reply: 204 to 208 °C

###

READOUT: melting point

COc1ccc(NC(=O)OC2CN3CCC2CC3)cc1 (stereo unspecified) | 160 °C
COC(=O)CC1OCCN(CCc2c[nH]c3ccccc23)C1=O (stereo unspecified) | 144 °C
CS(=O)(=O)c1sccc1S(N)(=O)=O | 242 to 244 °C
COc1ccc(C(=O)C[N+](=O)[O-])c(O)c1 | 138 to 140 °C
CN(Cc1ccccc1)C(=O)C[C@@H](Cc1ccccc1)C(=O)O | 119 to 121 °C

Continue with the compound presented below.
Query: What measured melting point goes with O=Cc1cc2c3ccccc3ccc2c2ccccc12 ?
Reply: 167 to 169 °C

###

Reported values of melting point for individual entries

CN1C(=O)CC[C@]2(C)c3ccc(-c4cccc([N+](=O)[O-])c4)cc3CC[C@@H]12 | 181 to 183 °C
CC(C)[C@H](NC(=O)c1ccc2ccccc2n1)C(=O)NC(Cc1ccccc1)C(O)CNCC(O)C(Cc1ccccc1)NC(=O)OC(C)(C)C (stereo partly specified) | 192 to 194 °C
COc1ccc(N2N=C3c4cc(C)sc4S(=O)(=O)CCC3CC2=O)cc1 (stereo unspecified) | 190 to 191 °C
COc1ccc(C(=O)NC(Cc2ccccc2)C(=O)NC(Cc2ccc(O)cc2)C(=O)O)cc1 (stereo unspecified) | 198 to 200 °C
COc1cc2c(cc1Br)CCOC2c1ccc([N+](=O)[O-])cc1 (stereo unspecified) | 144 to 147 °C
CC1CN(c2ccc(N)cc2)CC(C)N1 (stereo unspecified) | 124 to 125 °C
O=C(NCCSCc1ccccc1)c1ccccc1 | 65 to 67 °C
COC(=O)C1CCC2C3CCC4CC5OC5CC4(C)C3C(=O)CC12C (stereo unspecified) | 140 to 145 °C
CSC(=S)NCc1c[nH]c2ccccc12 | 132 to 133 °C
CC(C)(C)OC(=O)N1CCC[C@@H](OC(=O)c2ccc(OC(C)(C)C)cc2)[C@H](NC(=O)c2ccc(OC(C)(C)C)cc2)C1 | 126 to 128 °C

Query: I have this molecule here, CCCCCc1ccc(-c2cnc(-c3ccc(C#N)cc3)nc2)cc1 , and I need its recorded melting point.
Reply: 126 °C

###

melting point reference

Take a look at these entries with their results.
COC(=O)c1sccc1Nc1ccccc1[N+](=O)[O-] | 184 °C
O=C(O)COc1cc(Cl)ccc1C(=O)NCc1c(F)cccc1F | 188 to 190 °C
CC(C)(C)N(NC(=O)c1cnccn1)C(=O)c1ccccc1 | 181 to 183 °C
COc1cc2c(cc1N1CCNCC1)OCC2 | 108 to 109 °C
CCCCN1CCC(NS(=O)(=O)c2ccc(NC(C)=O)cc2)CC1 | 174 to 175 °C
C[C@@H]1CN(c2ncc(Cl)cc2Cl)CCN1c1nc2c(Br)cc(C(F)(F)F)cc2[nH]1 | 135 to 137 °C
CCN1CCCC1=NC(=O)Nc1c(C)cccc1C | 120 to 122 °C
N=C(NS(=O)(=O)C=Cc1ccccc1)c1ccccc1 | 192 to 194 °C

Query: Entry Cc1cnc2c(NC(=O)c3c(Cl)cccc3Cl)cccc2c1OCC=Cc1ccccc1 : reported melting point = ?
Reply: 169 to 171 °C

Query: Value lookup for melting point; key = O=c1cc(CBr)c2cc(O)ccc2o1
Reply: 198 to 200 °C

Query: What does the data say about its melting point? Entry: Nc1nc2ccccc2c2c1nc(C1CCCC1)n2CCOc1ccccc1
Reply: 216 to 218 °C

Query: Which melting point reading was recorded for the compound CC(=O)NC[C@H]1CN(c2ccc(N3CCN(C(=O)CCC(=O)c4ccc(CN(C)C)cc4)CC3)c(F)c2)C(=O)O1 ?
Reply: 190 to 192 °C

Query: Item CC1=CC(c2cccc(Cl)c2)C=C(CN2C(=O)c3ccccc3C2=O)N1 (configuration not stated) has what recorded melting point?
Reply: 128 to 130 °C

###

Listed molecules paired with reported melting point

Previously resolved entries follow.
CCCc1c(OCCCCCCc2cc(O)c(O)cc2F)ccc(C(=O)O)c1O | 110 to 111 °C
CS(=O)(=O)c1ccc(C(CC2CCCC2)C(=O)O)cc1Br (stereo unspecified) | 149 to 150 °C
O=C1c2ccccc2C(=O)N1Cn1nnn(-c2ccccc2)c1=S | 130 to 134 °C
O=C(O)CCCCCCCCNS(=O)(=O)c1ccc(Br)cc1 | 124 to 125 °C
CCOC(=O)C(=O)c1ccc(OCCCCC(=O)c2cc(C(C)(C)C)c(O)c(C(C)(C)C)c2)cc1 | 95 to 96 °C
O=C(O)Cc1c(C(=O)c2cc(CO)ccn2)[nH]c2cc(Cl)ccc12 | 210 to 212 °C
CCOC(=O)c1[nH]c(SCC)nc1C(C)(C)O | 82 to 85 °C
CCc1noc(-c2cn(-c3ccc(OC)c(OC)c3)cn2)n1 | 143 °C
Cc1ccccc1Nc1nc(N(C)c2ccccc2)c2sccc2n1 | 198 to 200 °C
CSC(=S)N1CCN(Cc2ccccc2O)CC1 | 147 °C

Query: State the recorded melting point for this entry: O=[PH]1Oc2ccccc2-c2ccccc21 (stereo unspecified)
Reply: 116 °C

Query: Item CC1(C)CC(C)(O)C2CCC2(C)C1 (stereo unspecified) has what recorded melting point?
Reply: 54 to 55 °C

Query: Which measured melting point value corresponds to ICCCCCOc1ccc(C2=C(c3ccccc3)CCCc3cc(OC4CCCCO4)ccc32)cc1 (stereo unspecified) ?
Reply: 109 to 111 °C

Query: Param item = CC(=O)OCC1OC(OC2C(COC(C)=O)OC(Oc3ccc(N)cc3)C(OC(C)=O)C2OC(C)=O)C(OC(C)=O)C(OC(C)=O)C1OC(C)=O (stereo unspecified) ; retrieve measured melting point.
Reply: 174 to 176 °C

Query: Name the recorded melting point for CCn1ncc(N=O)c1N .
Reply: 135 to 136 °C

Query: // returns reported melting point for input CCN(CC)CCOc1ccc(C(O)(CC)c2cc(C)ccc2C)cc1 (stereo unspecified)
Reply: 89 to 90 °C

Query: Suppose we examine the molecule Cc1cc(-c2ccccc2)c(C)cc1-c1ccccc1 ; what melting point value has been reported?
Reply: 301 to 304 °C

Query: Can you look up the measured melting point of COc1ccc2nc3ccc(OC)cc3c(C(=O)O)c2c1 for me?
Reply: 192 to 193 °C

Query: For the molecule CCOc1cc(-c2nnc3c4ccccc4c(OCc4cn(C)cn4)nn23)no1 , what melting point is on record?
Reply: 189 to 190 °C

Query: Query (molecule): C[C@H]1Cc2c(F)c(F)cc3c(=O)c(C(=O)O)cn1c23 ; field requested: melting point
Reply: 279 to 283 °C

Query: Consider the molecule O=C(O)C(CC1CCCC1)c1ccc(S(=O)(=O)C(F)(F)F)cc1 (stereo unspecified) and give its measured melting point.
Reply: 143 to 145 °C
